Test system: isolated rat aortae
Experiment: Vasorelaxing effect on the isolated rat aortae (Referential Example 1)-1)
Details: inhibition of contraction induced by 40 mM KCl
pIC50: −log10 of the molar value.
Readout label: pIC50

(I) N#CNC(=NCc1ccc([N+](=O)[O-])cc1)c1cccnc1 [(23)]
(II) CC(C)(C)CN=C(NC#N)c1ccccn1 [(2)]
(III) N#CNC(=NCc1ccc(Cl)cc1)c1cccnc1 [(22)]
Order the items by recorded pIC50; the first position goes to the largest value. Form entry: labels listed in requested order.
III, II, I

====

Tested on: isolated rat aortae
Experiment: Vasorelaxing effect on the isolated rat aortae (Referential Example 1)-1)
Conditions: inhibition of contraction induced by 40 mM KCl
pIC50: −log10 of the molar value.
Readout label: pIC50

Form field pIC50, entry N#CNC(=NCc1ccc(C(F)(F)F)cc1)c1cccnc1 [(21)] : 4.15

Form field pIC50, entry N#CNC(=NCc1ccccc1)c1cccnc1 [(17)] : 4.18

Form field pIC50, entry COc1ccc(N=C(NC#N)c2ccccn2)cc1 [(5)] : 4.19
